Attribution: ChEMBL document CHEMBL4325903

test: Selectivity index, ratio of IC50 for cytotoxicity against African green monkey Vero cells to IC50 for chloroquine-sensitive Plasmodium falciparum D6; format: toxicity, cell-based; conditions: read-out: Ratio IC50
Listing: selectivity ratio of selected molecules

Solved entries:
Cc1cc(N(CCCNc2ccnc3cc(Cl)ccc23)Cc2ccccn2)nc(N2CCCCC2)n1; > 102
Cc1cc(N2CCCCC2)nc(N(CCNc2ccnc3cc(Cl)ccc23)Cc2ccccn2)n1; > 38.6
CCN1CCN(c2nc(C)cc(N(CCCNc3ccnc4cc(Cl)ccc34)Cc3ccccn3)n2)CC1; > 321
Cc1cc(N2CCOCC2)nc(N(CCCNc2ccnc3cc(Cl)ccc23)Cc2cccs2)n1; > 167
Cc1cc(N(CCCNc2ccnc3cc(Cl)ccc23)Cc2ccccn2)nc(N2CCOCC2)n1; > 82.5

For the molecule `Cc1cc(N2CCCC2)nc(N(CCCNc2ccnc3cc(Cl)ccc23)Cc2cccs2)n1` , give its reported selectivity ratio. > 26.8

State, in one line, measured selectivity ratio of `Cc1cc(N(CCCNc2ccnc3cc(Cl)ccc23)Cc2cccs2)nc(N2CCCCC2)n1` 109

Please give the documented selectivity ratio of `C[C@@H]1CC[C@H]2[C@@H](C)C(=O)O[C@@H]3O[C@@]4(C)CC[C@@H]1[C@]32OO4` > 49.2

State its selectivity ratio: `Clc1ccc2c(NCCCNCc3cccs3)ccnc2c1` > 33.8

Check the records and state selectivity ratio for `Cc1cc(N(CCNc2ccnc3cc(Cl)ccc23)Cc2ccccn2)nc(Cl)n1` > 46.6

State, in one line, measured selectivity ratio of `Cc1cc(N2CCN(C)CC2)nc(N(CCCNc2ccnc3cc(Cl)ccc23)Cc2ccccn2)n1` > 16.7

Return reported selectivity ratio. Input molecule: `Cc1cc(N(CCCNc2ccnc3cc(Cl)ccc23)Cc2cccs2)nc(N2CCN(C)CC2)n1` > 24.6

// fetch selectivity ratio given entry `Cc1cc(N2CCCCC2)nc(N(CCCNc2ccnc3cc(Cl)ccc23)Cc2cccs2)n1` 161

Give the measured selectivity ratio for `Cc1cc(N(CCNc2ccnc3cc(Cl)ccc23)Cc2ccccn2)nc(N2CCOCC2)n1` > 64.2

Tell me measured selectivity ratio for `CCN1CCN(c2nc(C)cc(N(CCNc3ccnc4cc(Cl)ccc34)Cc3ccccn3)n2)CC1` please. > 326

Determine its reported selectivity ratio: `Cc1cc(N2CCN(C)CC2)nc(N(CCCNc2ccnc3cc(Cl)ccc23)Cc2cccs2)n1` > 23.4
